target: Melanocortin receptor 3 (Homo sapiens); assay: Displacement of [125I]-NDP-alpha-MSH from human MC3 receptor expressed in HEK293 cells at 10 uM by gamma counting analysis; format: cell-based
Sequence (P41968 whole entry): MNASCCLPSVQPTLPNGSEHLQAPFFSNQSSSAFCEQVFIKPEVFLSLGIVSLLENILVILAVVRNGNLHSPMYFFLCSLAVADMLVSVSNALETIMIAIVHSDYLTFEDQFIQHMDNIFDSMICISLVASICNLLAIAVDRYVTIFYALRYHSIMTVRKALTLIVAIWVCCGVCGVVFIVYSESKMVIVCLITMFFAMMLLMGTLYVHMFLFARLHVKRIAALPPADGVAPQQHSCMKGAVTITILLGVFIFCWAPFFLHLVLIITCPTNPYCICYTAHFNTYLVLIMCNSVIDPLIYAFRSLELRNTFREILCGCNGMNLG
The entries below are paired with their reported %max.
Express your answer in %, writing the number without its unit.

Recorded results for 2 compounds are shown here.
CC(=O)N[C@H]1Cc2ccccc2CN([C@H](Cc2ccccc2)C(=O)N[C@@H](CCCNC(=N)N)C(=O)N[C@@H](Cc2c[nH]c3ccccc23)C(N)=O)C1=O
59
CC(=O)N[C@H]1Cc2c([nH]c3ccccc23)CN([C@H](Cc2ccc(Br)cc2)C(=O)N[C@@H](CCCNC(=N)N)C(=O)N[C@@H](Cc2c[nH]c3ccccc23)C(N)=O)C1=O
100

Ask: // map CC(=O)N[C@H]1Cn2nncc2CN([C@H](Cc2ccccc2)C(=O)N[C@@H](CCCNC(=N)N)C(=O)N[C@@H](Cc2c[nH]c3ccccc23)C(N)=O)C1=O to recorded %max (system: Melanocortin receptor 3 (Homo sapiens))
Reply: 55

Ask: // map CC(=O)N[C@H]1Cc2c([nH]c3ccccc23)CN([C@H](Cc2ccc(F)cc2)C(=O)N[C@@H](CCCNC(=N)N)C(=O)N[C@@H](Cc2c[nH]c3ccccc23)C(N)=O)C1=O to recorded %max (system: Melanocortin receptor 3 (Homo sapiens))
Reply: 50
